Measured GI50 of individual entries
# Tested on: M14
# experimentDescription: NCI tumour cell line growth inhibition, 48 h
Activity calls are given as the source filed them. Cut-off read from the data, not from the text of the source: active = GI50 up to about 1.1 µM and inactive = higher.

O=C(CSC(=S)N1CCOCC1)Nc1nc2c(s1)CCCC2 | > 100 µM (inactive)

// sample O=C(NNC(=O)c1ccc(Cl)cc1NC(=O)C12CC3CC(CC(C3)C1)C2)c1ccc(Cl)cc1 , its GI50 was 21.2 µM (inactive)

// sample Oc1ccc2ccccc2c1/N=N\c1cccc2ccccc12 , its GI50 was 95.9 µM (inactive)

---

# System: SN12C
# experimentDescription: NCI tumour cell line growth inhibition, 48 h
Calls of active or inactive are those of the source. Cut-off read from the data, not from the text of the source: active = GI50 up to about 1.1 µM and inactive = higher.
Please answer using one outcome listed in active, inactive

O=C(c1ccc(Cl)cc1Cl)N(C(=O)N1CCCCC1)c1ccccc1 | inactive
CCOC(=O)c1c(N2CCCC2)[nH]c(=O)c(C(c2ccc(OC)cc2)c2c(O)c(C(=O)OCC)c(N3CCCC3)[nH]c2=O)c1O | inactive
CCC1(O)C(=O)OCc2c1cc1n(c2=O)Cc2cc3c(N)cccc3nc2-1 (centres undefined) | active

-- ask Write down the call the test reported for this molecule. Item: COc1cc(/C=C/C2=NN(c3cccc(S(=O)(=O)O)c3)C3(C2)C(Cl)C(=O)N3c2nc3ccccc3s2)ccc1O (centres undefined)
-- reply inactive

-- ask Write down the call the test reported for this molecule. Item: Oc1c2c(c(O)c3ccccc13)C1(N=N2)c2ccccc2Oc2ccccc21
-- reply inactive

-- ask Write down the call the test reported for this molecule. Item: CC(=O)NN(c1ccccc1)C1CCN(c2ccccc2)N1C(C)=O (centres undefined)
-- reply inactive

-- ask Write down the call the test reported for this molecule. Item: COc1cc2c(cc1OC)C(=O)N(c1ccc(O)cc1)C2
-- reply inactive

-- ask Write down the call the test reported for this molecule. Item: O=c1[nH]c(=O)n(C2OC(CO)C(O)C(F)C2O)cc1F (centres undefined)
-- reply inactive

---

Measured GI50 of individual entries
# Test system: EKVX
# experimentDescription: NCI tumour cell line growth inhibition, 48 h
The source made the active and inactive calls. Rule as the data show it: active = GI50 up to about 1.1 µM and inactive = higher.

These solved cases illustrate the format of a correct answer.
CCC1(O)C(=O)OCc2c1cc1n(c2=O)Cc2cc3c(N)cccc3nc2-1 (configuration not stated) | 1.2 µM (inactive)
COc1ccc2c(=O)c(-c3cc(OC)c(OC)cc3OC)coc2c1 | 36.1 µM (inactive)
CNC1c2ccccc2C(=O)c2cc3c(cc21)OCCOCCOCCOCCO3 (configuration not stated) | > 100 µM (inactive)
[C-]#[N+]C1(C(=O)OCC)CC1 | > 100 µM (inactive)
Cc1ccc(-c2c(C#N)c(-c3ccccc3)n(NS(=O)(=O)c3ccccc3)c(=O)c2C#N)cc1 | > 100 µM (inactive)
COc1ccccc1/C=C/C1=NN(c2cccc(S(=O)(=O)O)c2)C2(C1)C(Cl)C(=O)N2c1nc2ccccc2s1 (configuration not stated) | 43.4 µM (inactive)
CCOC(=O)CNC(SC)=C(C#N)C#N | > 100 µM (inactive)
Cc1cc(C)n(C(=C(C(Cl)=C(Cl)Cl)[N+](=O)[O-])n2nc(C)cc2C)n1 | 2.58 µM (inactive)
CCOS(=O)(=O)c1ccc(-c2c3nc(c(-c4ccc(S(=O)(=O)OCC)cc4)c4ccc([nH]4)c(-c4ccc(S(=O)(=O)OCC)cc4)c4nc(c(-c5ccc(S(=O)(=O)OCC)cc5)c5ccc2[nH]5)C=C4)C=C3)cc1 | > 31.6 µM (inactive)
COc1cc(/C=C2\C(=O)N(c3cccc(Cl)c3)C(c3ccccc3)S2(=O)=O)cc(OC)c1OC (configuration not stated) | > 100 µM (inactive)

// sample [O-]c1c2cc(-[n+]3c(-c4ccccc4)cc(-c4ccccc4)cc3-c3ccccc3)cc1COCCOCCOCCOCCOC2 , its GI50 was 33.9 µM (inactive)

// sample N#CCCN(CCC#N)c1ccc(/C=N\c2nc(-c3ccccc3)cs2)cc1 , its GI50 was > 100 µM (inactive)
